# System: UACC-62 melanoma
# ASSAY_INFO: NCI tumour cell line growth inhibition, 48 h
READOUT: TGI

[[record]]
compound_structure = "Nc1nc(-c2ccco2)cc(-c2ccco2)n1"
assayed_system = "UACC-62 melanoma"
observed_measurement = "> 100 µM"

[[record]]
compound_structure = "Cc1cc2c(O)c(c1)COCc1cc(C)cc(c1O)COCc1cc(C)cc(c1O)COC2"
assayed_system = "UACC-62 melanoma"
observed_measurement = "> 100 µM"

[[record]]
compound_structure = "O=C1Nc2cc(Cl)ccc2C(=O)N2CCC[C@@H]12"
assayed_system = "UACC-62 melanoma"
observed_measurement = "> 100 µM"

[[record]]
compound_structure = "N#Cc1ccccc1NC(=O)/C(=N\\Nc1ccc([N+](=O)[O-])cc1)C1C(=O)NC(=O)NC1=O"
assayed_system = "UACC-62 melanoma"
observed_measurement = "> 100 µM"

[[record]]
compound_structure = "COc1ccc2c(CCNC(C)=O)c(C(C)=O)[nH]c2c1"
assayed_system = "UACC-62 melanoma"
observed_measurement = "> 100 µM"

[[record]]
compound_structure = "O=C1C(Cl)=C(Cl)C(=O)C2=C1C1c3ccccc3C2c2ccccc21"
assayed_system = "UACC-62 melanoma"
observed_measurement = "79.9 µM"

[[record]]
compound_structure = "CC(C)(C)c1ccc(C(C)(C)C)c(N2C(=O)[C@@H]3[C@@H]4C=C[C@@H](C4)[C@]3(C)C2=O)c1"
assayed_system = "UACC-62 melanoma"
observed_measurement = "46.7 µM"

[[record]]
compound_structure = "CCOC(=O)C(=O)/C(=C/n1c(=S)[nH]c2ccc([N+](=O)[O-])cc21)C(=O)OCC"
assayed_system = "UACC-62 melanoma"
observed_measurement = "> 100 µM"

[[record]]
compound_structure = "O=c1c(Cc2c(O)ccc3ccccc23)nnc2sc(-c3nn4c(=O)c(Cc5c(O)ccc6ccccc56)nnc4s3)nn12"
assayed_system = "UACC-62 melanoma"
observed_measurement = "> 100 µM"


----------
The compounds listed here are annotated with their TGI.
# Tested on: OVCAR-8 ovarian
# ASSAY_INFO: NCI tumour cell line growth inhibition, 48 h
READOUT: TGI

[[record]]
compound = "CC(=O)NCCC1CNc2ccccc21 (configuration not stated)"
readout = "TGI"
observed_measurement = "> 100 µM"

[[record]]
compound = "CCC(=O)c1cc(C(=O)C(=S)SC)cc(C(=O)C(=S)SC)c1"
readout = "TGI"
observed_measurement = "> 100 µM"

[[record]]
compound = "O=C([O-])c1cc(I)cc(I)c1[OH2+].O=C([O-])c1cc(I)cc(I)c1[OH2+].[Mn+2]"
readout = "TGI"
observed_measurement = "> 100 µM"

[[record]]
compound = "CN(C)CCCNC(=O)c1cc2/c(=C\\c3ccc(N(C)C)cc3)c3ccccc3n2[n+]1C"
readout = "TGI"
observed_measurement = "> 100 µM"

[[record]]
compound = "COc1cc(-c2ccc(-c3ccc(C(=N)N)cc3)s2)cc(OC)c1OC"
readout = "TGI"
observed_measurement = "5.87 µM"

[[record]]
compound = "CC(N)Cc1ccc(F)cc1 (configuration not stated)"
readout = "TGI"
observed_measurement = "> 100 µM"

[[record]]
compound = "Cc1c2c(cc3c1[nH]c1ccccc13)C(c1ccc(Cl)cc1)=NCC2"
readout = "TGI"
observed_measurement = "7.14 µM"

[[record]]
compound = "COC1OC(COC(C)=O)C(OC(C)=O)C(OC(C)=O)C1NC(=O)N(CCCl)N=O (configuration not stated)"
readout = "TGI"
observed_measurement = "> 100 µM"

[[record]]
compound = "CC(=O)O[C@H]1C(=O)[C@@]2(C)[C@H]([C@H](OC(=O)c3ccccc3)[C@]3(O)C[C@H](OC(=O)[C@H](O)[C@@H](NC(=O)c4ccccc4)c4ccccc4C)C(C)=C1C3(C)C)[C@]1(OC(C)=O)CO[C@@H]1C[C@@H]2O"
readout = "TGI"
observed_measurement = "12.7 µM"

[[record]]
compound = "Nc1nc(-c2ccco2)cc(-c2ccco2)n1"
readout = "TGI"
observed_measurement = "> 100 µM"

[[record]]
compound = "CCOc1ccc(N=Nc2ccc3oc(=O)c(/C(C)=N/NC(=O)CC(=O)Nc4cccc(OC)c4)cc3c2)cc1"
readout = "TGI"
observed_measurement = "> 61.4 µM"

[[record]]
compound = "COc1cc(/C=N/n2c(-c3ccccc3)n[nH]c2=O)cc(OC)c1OC"
readout = "TGI"
observed_measurement = "> 100 µM"

[[record]]
compound = "O=C(NN1C(=O)C(Cl)C1c1ccc(O)cc1)c1ccccc1O (configuration not stated)"
readout = "TGI"
observed_measurement = "30.8 µM"

[[record]]
compound = "CC/C=C/C[C@H](O[Si](C)(C)C(C)(C)C)[C@H]1C[C@H]2O[C@H]([C@@H](O)C#C[Si](C)(C)C)C[C@H]2O1"
readout = "TGI"
observed_measurement = "27.9 µM"

[[record]]
compound = "Cc1cc2c(O)c(c1)COCc1cc(C)cc(c1O)COCc1cc(C)cc(c1O)COC2"
readout = "TGI"
observed_measurement = "> 100 µM"

[[record]]
compound = "CC1(C)CN(c2cc(C(F)(F)F)cc3cncn23)CCC12NC(=O)NC2=O (configuration not stated)"
readout = "TGI"
observed_measurement = "> 100 µM"

[[record]]
compound = "CCCN=Cc1c(O)c(O)c(C(C)C)c2cc(C)c(-c3c(C)cc4c(C(C)C)c(O)c(O)c(C=NCCC)c4c3O)c(O)c12"
readout = "TGI"
observed_measurement = "> 100 µM"


----------
# Test system: 786-0 renal
# ASSAY_INFO: NCI tumour cell line growth inhibition, 48 h
The following compounds are shown together with reported GI50 values.
READOUT: GI50

[[record]]
compound = "CC1(C)CN(c2cc(C(F)(F)F)cc3cncn23)CCC12NC(=O)NC2=O (stereo not given)"
observed_measurement = "32.8 µM"

[[record]]
compound = "CCC(CC)c1nc(Nc2cccc(OC)c2)c2ccccc2n1"
observed_measurement = "11 µM"

[[record]]
compound = "Cn1ncc(NC(=O)c2nc(-c3c(F)cccc3F)sc2N)c1N1CC[C@@H](N)[C@H](F)CC1"
observed_measurement = "3.75 µM"

[[record]]
compound = "O=C(Nc1ccc(OCc2nnc(-c3ccc(Cl)cc3)o2)c(F)c1)c1ccc(Cl)c(C(F)(F)F)c1"
observed_measurement = "> 50 µM"

[[record]]
compound = "COc1cc2c3c(n(CCCNCCNCCN)c(=O)c2cc1OC)-c1cc2c(cc1C3=O)OCO2"
observed_measurement = "1.91 µM"


----------
# Test system: HL-60(TB) leukemia
# ASSAY_INFO: NCI tumour cell line growth inhibition, 48 h
READOUT: TGI (µM)

[[record]]
compound = "O=c1c2cc(F)ccc2sc2c(Nc3ccncc3)nc3ccccc3c12"
assayed_system = "HL-60(TB) leukemia"
readout = "TGI"
value_relation_sign = "="
observed_measurement = 39.8

[[record]]
compound = "c1ccc([P+](c2ccccc2)(c2ccccc2)c2ccc3c4ccc([P+](c5ccccc5)(c5ccccc5)c5ccccc5)c5cccc(c6cccc2c63)c54)cc1"
assayed_system = "HL-60(TB) leukemia"
readout = "TGI"
value_relation_sign = "="
observed_measurement = 6.25

[[record]]
compound = "CCOC(=O)C1C(O)CC2c3ccccc3-c3ccccc3C21 (stereo not given)"
assayed_system = "HL-60(TB) leukemia"
readout = "TGI"
value_relation_sign = ">"
observed_measurement = 100

[[record]]
compound = "O=C(c1ccc(Cl)cc1)c1no[n+]([O-])c1C(=O)c1ccc(Cl)cc1"
assayed_system = "HL-60(TB) leukemia"
readout = "TGI"
value_relation_sign = "="
observed_measurement = 20.7

[[record]]
compound = "Cn1c(-c2ccccc2)cc(-c2ccsc2)c1-c1ccsc1"
assayed_system = "HL-60(TB) leukemia"
readout = "TGI"
value_relation_sign = ">"
observed_measurement = 100

[[record]]
compound = "Nc1nonc1C(=Nc1ccc(F)c(Cl)c1)NO"
assayed_system = "HL-60(TB) leukemia"
readout = "TGI"
value_relation_sign = ">"
observed_measurement = 100

[[record]]
compound = "CCN(CC)CCNc1ccc2nnn3c4ccc([N+](=O)[O-])cc4c(=O)c1c23"
assayed_system = "HL-60(TB) leukemia"
readout = "TGI"
value_relation_sign = "="
observed_measurement = 30.2

[[record]]
compound = "COc1ccc(NC2=NCCO2)c2c1CCCC2"
assayed_system = "HL-60(TB) leukemia"
readout = "TGI"
value_relation_sign = "="
observed_measurement = 40

[[record]]
compound = "CC1=C(O)C(=O)C(C2=C(O)C(=O)C(C)=C(O)C2=O)=C(O)C1=O"
assayed_system = "HL-60(TB) leukemia"
readout = "TGI"
value_relation_sign = ">"
observed_measurement = 100

[[record]]
compound = "O=[N+]([O-])c1ccc2c(c1)Sc1ccccc1N2"
assayed_system = "HL-60(TB) leukemia"
readout = "TGI"
value_relation_sign = ">"
observed_measurement = 100

